Target: KasQ E308A (Streptomyces kasugaensis, UniProt A0A0K1H2R6, E308A)
Sequence (A0A0K1H2R6 entry or part of it E308A): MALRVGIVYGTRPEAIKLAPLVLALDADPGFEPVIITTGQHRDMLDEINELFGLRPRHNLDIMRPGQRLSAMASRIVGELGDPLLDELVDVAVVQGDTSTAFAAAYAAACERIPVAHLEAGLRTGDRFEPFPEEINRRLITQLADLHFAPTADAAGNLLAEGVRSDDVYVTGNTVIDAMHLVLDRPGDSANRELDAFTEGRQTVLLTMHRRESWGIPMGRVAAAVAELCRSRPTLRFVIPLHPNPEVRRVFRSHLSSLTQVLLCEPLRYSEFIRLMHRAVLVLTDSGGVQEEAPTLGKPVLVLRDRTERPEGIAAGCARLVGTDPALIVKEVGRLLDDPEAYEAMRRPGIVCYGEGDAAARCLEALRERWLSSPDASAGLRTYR
Experiment: biochemical
Type: binding
Description: Site-directed mutagenesis was performed using QuikChange (Stratagene), following the manufacturer’s protocol. The wild-type KasQ plasmid (BCRC12349) was used as the template for the single mutation. All mutations were confirmed by DNA sequencing. KasQ mutants were expressed and purified with the same protocol as used for the wild-type protein. The cell stirring speed was 1000 rpm.
reported metric: pKd
Lab note: report pKd as minus log10 of the concentration in molar units, number only.

Determine reported pKd for `O=C(O)[C@H]1O[C@H](OP(=O)(O)OP(=O)(O)OC[C@H]2O[C@@H](n3ccc(=O)[nH]c3=O)[C@H](O)[C@@H]2O)[C@H](O)[C@@H](O)[C@@H]1O` ; test system: KasQ E308A (Streptomyces kasugaensis, UniProt A0A0K1H2R6, E308A). 3.97

====

target: KasH (Streptomyces kasugaensis, UniProt A0A0K1H2T0);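 also: isothermal titration calorimetry at 25 °C, 0.1 mM KasH in the cell titrated with 1 mM ligand over 18 injections, data fit with a one-site binding model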
Sequence (A0A0K1H2T0 entry or part of it): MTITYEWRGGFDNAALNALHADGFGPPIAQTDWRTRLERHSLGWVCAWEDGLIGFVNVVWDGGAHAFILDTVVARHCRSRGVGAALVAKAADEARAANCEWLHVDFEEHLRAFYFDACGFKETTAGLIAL
pKd: −log10 of the molar value.
Use t when the recorded pKd is no lower than 4; use f when it is lower.

Please check the record CCC(=O)SCCNC(=O)CCNC(=O)[C@H](O)C(C)(C)COP(=O)(O)OP(=O)(O)OC[C@H]1O[C@@H](n2cnc3c(N)ncnc32)[C@H](O)[C@@H]1OP(=O)(O)O [Propionyl-CoA, propionyl-CoA] and state if its pKd is at or above 4. t

Please check the record CC(=O)SCCNC(=O)CCNC(=O)[C@H](O)C(C)(C)COP(=O)(O)OP(=O)(O)OC[C@H]1O[C@@H](n2cnc3c(N)ncnc32)[C@H](O)[C@@H]1OP(=O)(O)O [AcCoA] and state if its pKd is at or above 4. f

Please check the record C[C@H]1O[C@H](O[C@H]2[C@H](O)[C@@H](O)[C@@H](O)[C@H](O)[C@@H]2O)[C@@H](N)C[C@@H]1NC(=N)C(=O)O [KSM, Kasugamycin] and state if its pKd is at or above 4. t

Please check the record CC(C)CC(=O)SCCNC(=O)CCNC(=O)[C@H](O)C(C)(C)COP(=O)(O)OP(=O)(O)OC[C@H]1O[C@@H](n2cnc3c(N)ncnc32)[C@H](O)[C@@H]1OP(=O)(O)O [Isovaleryl-CoA, isovaleryl-CoA] and state if its pKd is at or above 4. f

====

molecular target: KasQ (Streptomyces kasugaensis, UniProt A0A0K1H2R6); assay: Isothermal titration calorimetry (ITC) of KasQ wild type versus substrates; format: binding; conditions: ITC; KasQ wild type;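 also: titration of 1 mM substrate into 0.1 mM KasQ, 18 injections spaced 120 s, data fitted to a single-site binding model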
Sequence (A0A0K1H2R6 entry or part of it): as the sequence (A0A0K1H2R6 entry or part of it E308A) above
reported metric: ∆H

Let me know recorded ∆H for `Nc1ncnc2c1ncn2[C@@H]1O[C@H](COP(=O)(O)OP(=O)(O)O)[C@@H](O)[C@H]1O` , thanks. NBD

Let me know recorded ∆H for `O=c1ccn([C@@H]2O[C@H](COP(=O)(O)O)[C@@H](O)[C@H]2O)c(=O)[nH]1` , thanks. -9.254 ± 1.245 kcal/mol

Let me know recorded ∆H for N[C@H]1C(O)O[C@H](CO)[C@@H](O)[C@@H]1O (some centres unmarked) , thanks. NBD

Let me know recorded ∆H for `O=C(O)[C@H]1O[C@H](OP(=O)(O)OP(=O)(O)OC[C@H]2O[C@@H](n3ccc(=O)[nH]c3=O)[C@H](O)[C@@H]2O)[C@H](O)[C@@H](O)[C@@H]1O` , thanks. -1.376 ± 0.5751 kcal/mol

Let me know recorded ∆H for `O=C[C@H](O)[C@@H](O)[C@@H](O)[C@H](O)CO` , thanks. NBD

Let me know recorded ∆H for `O=c1ccn([C@@H]2O[C@H](COP(=O)(O)OP(=O)(O)OP(=O)(O)O)[C@@H](O)[C@H]2O)c(=O)[nH]1` , thanks. -9.104 ± 1.340 kcal/mol

Let me know recorded ∆H for `Cc1cn([C@H]2C[C@H](O)[C@@H](COP(=O)(O)OP(=O)(O)O[C@H]3O[C@H](CO)[C@@H](O)[C@H](O)[C@H]3O)O2)c(=O)[nH]c1=O` , thanks. -4.568 ± 0.2773 kcal/mol

Let me know recorded ∆H for `Nc1ncnc2c1ncn2[C@@H]1O[C@H](COP(=O)(O)OP(=O)(O)OP(=O)(O)O)[C@@H](O)[C@H]1O` , thanks. NBD

***
Let me know recorded ∆H for `Nc1nc2c(ncn2[C@@H]2O[C@H](COP(=O)(O)OP(=O)(O)O)[C@@H](O)[C@H]2O)c(=O)[nH]1` , thanks. NBD

Let me know recorded ∆H for O=C(O)[C@H]1OC(O)[C@H](O)[C@@H](O)[C@@H]1O (some centres unmarked) , thanks. NBD

Let me know recorded ∆H for `CC(=O)N[C@H]1[C@@H](OP(=O)(O)OP(=O)(O)OC[C@H]2O[C@@H](n3ccc(=O)[nH]c3=O)[C@H](O)[C@@H]2O)O[C@H](CO)[C@H](O)[C@@H]1O` , thanks. -3.418 ± 1.700 kcal/mol

Where do the numbers come from? From paper PMC8869731.
